- TEST_SYSTEM: asparagine endopeptidase (Homo sapiens, UniProt Q99538)
- Sequence (Q99538 26-323 limits assumed): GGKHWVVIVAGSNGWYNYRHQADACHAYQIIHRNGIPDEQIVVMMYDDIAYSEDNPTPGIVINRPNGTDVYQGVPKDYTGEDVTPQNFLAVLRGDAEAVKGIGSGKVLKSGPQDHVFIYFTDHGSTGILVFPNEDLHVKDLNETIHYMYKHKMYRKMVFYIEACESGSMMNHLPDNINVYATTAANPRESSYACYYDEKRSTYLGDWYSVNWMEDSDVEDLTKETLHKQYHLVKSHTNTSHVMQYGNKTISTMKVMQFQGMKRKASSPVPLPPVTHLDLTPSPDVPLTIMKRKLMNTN
*1 amine or outer side, *2 acyl side, *3 side chain or, on linkers, in order; H or OH if unused. Where a SMILES comes first, the peptide text is derived from it. [ ]: non-standard residue; d: D form. The star is where a group is joined. ξ: configuration not given here. Dolaproine(all-ξ) = COC(C(C)C(=O)[*:2])C1CCCN1[*:1]; Dolaproine = CO[C@@H]([C@@H]1CCCN1)[C@@H](C)C(=O)O; Dil = CC[C@H](C)[C@H](NC)[C@@H](CC(=O)O)OC; X1 = CCC(C)C(C(CC(=O)[*:2])OC)N(C)[*:1]; PABC = O=C(OCc1ccc(N[*:1])cc1)[*:2]; X3 = C[C@@H](N*)[C@@H](O)c1ccccc1; MeOCH2CH2OCH2CO = COCCOCC(=O)*; NMeV = CN[CH](C(=O)O)C(C)C; X2 = CC(N*)C(O)c1ccccc1; Cbz = O=C(OCc1ccccc1)*
MEASUREMENT_NAME: Cleaving efficiency (%)
Give your result in % as a bare value.

Req: Give the measured Cleaving efficiency of CC[C@H](C)[C@@H]([C@@H](CC(=O)N1CCC[C@H]1[C@H](OC)[C@@H](C)C(=O)N[C@H](C)[C@@H](O)c1ccccc1)OC)N(C)C(=O)[C@@H](NC(=O)[C@H](C(C)C)N(C)C(=O)OCc1ccc(NC(=O)[C@H](CC(N)=O)NC(=O)[C@H](C)NC(=O)[C@H](C)NC(C)=O)cc1)C(C)C [AC-AAN-PABC-MMAE] (Ac-AAN[PABC][NMeV]V[Dil][Dolaproine]-X3) .
Resp: 3.4

Req: Continue with CCC(C)C(C(CC(=O)N1CCCC1C(OC)C(C)C(=O)NC(C)C(O)c1ccccc1)OC)N(C)C(=O)C(NC(=O)C(C(C)C)N(C)C(=O)OCc1ccc(NC(=O)C(CC(N)=O)NC(=O)C(C)NC(=O)C(C)NC(=O)COCCOC)cc1)C(C)C (stereo not drawn) [PEG-AAN-PABC-MMAE] (MeOCH2CH2OCH2CO-AAN[PABC][NMeV]V[X1][Dolaproine(all-ξ)]-X2; configuration not given here)
Resp: 14.4

Req: Continue with CC[C@H](C)[C@@H]([C@@H](CC(=O)N1CCC[C@H]1[C@H](OC)[C@@H](C)C(=O)N[C@H](C)[C@@H](O)c1ccccc1)OC)N(C)C(=O)[C@@H](NC(=O)[C@H](C(C)C)N(C)C(=O)OCc1ccc(NC(=O)[C@H](CC(N)=O)NC(=O)[C@H](C)NC(=O)[C@H](C)NC(=O)OCc2ccccc2)cc1)C(C)C [CBZ-AAN-PABC-MMAE] (Cbz-AAN[PABC][NMeV]V[Dil][Dolaproine]-X3)
Resp: 2.6
